Organism: Homo sapiens
Assay: To identify inhibition of the IFN signalling (Jak-Stat) pathway via expression of an eGFP reporter gene under the control of an IFN-stimulated response element (ISRE) containing MxA promoter.
Type: functional
Design: scale not given: direction of the effect not stated beside the values
Conditions: 30 µM
measured-attribute: Percent Effect (%)

[
  {
    "compound": "O=C(O)c1cc(S(=O)(=O)Nc2ccc(Cl)cc2)cc2c1OCCO2",
    "measured-attribute": "Percent Effect",
    "measured-number": -2.12
  },
  {
    "compound": "CCc1nc(C2CCCN(C(=O)c3ccc(OC(C)C)nc3)C2)no1 (stereo unspecified)",
    "measured-attribute": "Percent Effect",
    "measured-number": 15.9
  },
  {
    "compound": "CCS(=O)(=O)N1C[C@@H](OCc2cccnc2)[C@H]2OCCC[C@H]21",
    "measured-attribute": "Percent Effect",
    "measured-number": 9
  },
  {
    "compound": "O=C1c2cnc(N3CCOCC3)nc2CN1c1ccc2c(c1)OCO2",
    "measured-attribute": "Percent Effect",
    "measured-number": -11.1
  },
  {
    "compound": "CCOC(C)c1nc(CN2CCC(CNC(C)=O)CC2)cs1 (stereo unspecified)",
    "measured-attribute": "Percent Effect",
    "measured-number": -19.2
  },
  {
    "compound": "Cc1cc(C)n(C2CN(CC(=O)N(C)Cc3ccc(C)o3)C2)n1",
    "measured-attribute": "Percent Effect",
    "measured-number": -0.498
  },
  {
    "compound": "COCCCNC(=O)CCn1nc(C)c2ccccc21",
    "measured-attribute": "Percent Effect",
    "measured-number": 2.4
  },
  {
    "compound": "CCOC(=O)N1CCN(C(=O)CCn2ccc3c(OC)cccc32)CC1",
    "measured-attribute": "Percent Effect",
    "measured-number": 35
  },
  {
    "compound": "CC(=O)c1cccc(OCCCC(=O)N(C)Cc2cccc(O)c2)c1",
    "measured-attribute": "Percent Effect",
    "measured-number": 8.19
  },
  {
    "compound": "Cc1n[nH]c(C)c1C1COCCN1C(=O)c1cc(Cl)c[nH]1 (stereo unspecified)",
    "measured-attribute": "Percent Effect",
    "measured-number": 15
  },
  {
    "compound": "Cc1cc(OCC(=O)NS(=O)(=O)c2c(C)noc2C)ccc1Cl",
    "measured-attribute": "Percent Effect",
    "measured-number": 18.7
  },
  {
    "compound": "CN1CC(=O)N(c2cnn(C)c2)CC12CCN(C(=O)c1ccsc1)C2 (stereo unspecified)",
    "measured-attribute": "Percent Effect",
    "measured-number": -0.162
  },
  {
    "compound": "Cc1ccc([C@@H]2CN(C(=O)c3cccnn3)C[C@H]2NC(=O)C2CC2)cc1",
    "measured-attribute": "Percent Effect",
    "measured-number": 3.04
  },
  {
    "compound": "O=C(NCCCn1ccnc1)N1CCN(c2cccs2)CC1",
    "measured-attribute": "Percent Effect",
    "measured-number": -11.9
  },
  {
    "compound": "O=C1NC2(CCN(C(=O)c3ccccc3)CC2)CC1c1cccnc1 (stereo unspecified)",
    "measured-attribute": "Percent Effect",
    "measured-number": -28.6
  },
  {
    "compound": "O=C(c1ccncc1)N1CCC2(CC1)CC(Oc1cccnc1)CO2 (stereo unspecified)",
    "measured-attribute": "Percent Effect",
    "measured-number": -1.58
  },
  {
    "compound": "CSCc1nc(C(C)(C)NC(=O)OC(C)(C)C)no1",
    "measured-attribute": "Percent Effect",
    "measured-number": -12.6
  },
  {
    "compound": "CCOc1ccccc1C(=O)N1CCCC1c1ncc2c(n1)CCNC2 (stereo unspecified)",
    "measured-attribute": "Percent Effect",
    "measured-number": 10.5
  },
  {
    "compound": "COc1ccccc1N1CCC(CNCc2cccc(OC)c2OC)C1 (stereo unspecified)",
    "measured-attribute": "Percent Effect",
    "measured-number": 18.9
  },
  {
    "compound": "CC(C)OCCOCc1cccc(NC(=O)NCCn2ccnc2)c1",
    "measured-attribute": "Percent Effect",
    "measured-number": -0.82
  },
  {
    "compound": "Cc1nc(CN2C(=O)CC[C@@H]3[C@H]2CCN3C(=O)NC2CC2)cs1",
    "measured-attribute": "Percent Effect",
    "measured-number": 16.1
  },
  {
    "compound": "Cc1ccc(-c2nc(CN3CCc4c(ncn4C)C3)cs2)o1",
    "measured-attribute": "Percent Effect",
    "measured-number": 2.62
  },
  {
    "compound": "C[C@H]1C[C@H]2CN(C(=O)c3ccncn3)CC[C@H]2O1",
    "measured-attribute": "Percent Effect",
    "measured-number": -0.328
  },
  {
    "compound": "Cn1cc(CCC(=O)N2C[C@H]3CC[C@@H]2CN(Cc2ccccc2)C3)cn1",
    "measured-attribute": "Percent Effect",
    "measured-number": -28.4
  },
  {
    "compound": "c1ccc(-c2cnc(CNC3CCCN(c4cccnn4)C3)o2)cc1 (stereo unspecified)",
    "measured-attribute": "Percent Effect",
    "measured-number": 7.96
  },
  {
    "compound": "CN1CCCC[C@@H]2[C@H]1[C@@H](c1ccccc1)CCN2C(=O)c1cnccn1",
    "measured-attribute": "Percent Effect",
    "measured-number": -2.99
  },
  {
    "compound": "CC(C)c1nnc2n1CCN(C(=O)c1ccnc(N(C)C)c1)C2",
    "measured-attribute": "Percent Effect",
    "measured-number": -3.26
  },
  {
    "compound": "Cc1nc(N2CCN(C)CC2)ncc1C(=O)N1CCC(O)(CO)CC1",
    "measured-attribute": "Percent Effect",
    "measured-number": 9.71
  },
  {
    "compound": "Cc1nc(N2CCCCC2)ncc1C(=O)N1CC(C)(C)[C@@](C)(O)C1",
    "measured-attribute": "Percent Effect",
    "measured-number": 7.42
  },
  {
    "compound": "CC(=O)N1N=C(c2ccccc2)OC1C(=O)NCCC1=CCCCC1 (stereo unspecified)",
    "measured-attribute": "Percent Effect",
    "measured-number": 26.2
  },
  {
    "compound": "CCCc1n[nH]c(C2CN(C(=O)CCCn3cccn3)CCO2)n1 (stereo unspecified)",
    "measured-attribute": "Percent Effect",
    "measured-number": -2.8
  },
  {
    "compound": "Cc1csc(Nc2cc(C3CCCCN3C)nc(C)n2)n1 (stereo unspecified)",
    "measured-attribute": "Percent Effect",
    "measured-number": 14.7
  },
  {
    "compound": "COc1ccc(F)cc1CN1CCCC(c2cc(C(N)=O)[nH]n2)C1 (stereo unspecified)",
    "measured-attribute": "Percent Effect",
    "measured-number": 8.51
  },
  {
    "compound": "O=S(=O)(c1ccccc1Cl)N1CCc2nc(C3CCNCC3)ncc2C1",
    "measured-attribute": "Percent Effect",
    "measured-number": 34.8
  },
  {
    "compound": "CNC(=O)C1(CCCc2ccncc2)CCCN1 (stereo unspecified)",
    "measured-attribute": "Percent Effect",
    "measured-number": 1.56
  },
  {
    "compound": "COc1cccc(CN(C)Cc2cccc(C#N)c2)c1OC",
    "measured-attribute": "Percent Effect",
    "measured-number": 7.86
  },
  {
    "compound": "CN(C)C[C@H]1OC[C@@H]2CCN(S(=O)(=O)c3ccccc3)C[C@@H]21",
    "measured-attribute": "Percent Effect",
    "measured-number": 5.69
  },
  {
    "compound": "CC(NCC1=Cc2cc(Cl)ccc2OC1)c1nnc2n1CCCC2 (stereo unspecified)",
    "measured-attribute": "Percent Effect",
    "measured-number": -10.3
  },
  {
    "compound": "COc1cc(CNCc2c(C(C)C)nn(C)c2N(C)C)ccn1",
    "measured-attribute": "Percent Effect",
    "measured-number": -9.51
  },
  {
    "compound": "Cc1nc(C2CCN(C(=O)CO)CC2)cc(N2CCOCC2)n1",
    "measured-attribute": "Percent Effect",
    "measured-number": -12.6
  },
  {
    "compound": "COc1ccccc1C(=O)N1CC(Cc2nccc3ccn(C)c23)C1",
    "measured-attribute": "Percent Effect",
    "measured-number": 13.2
  },
  {
    "compound": "Cn1cnc2c1CCN(Cc1cccc(OCC(N)=O)c1)C2",
    "measured-attribute": "Percent Effect",
    "measured-number": 23.1
  },
  {
    "compound": "Cc1ccc(C2COCCN2C(=O)c2ccc(N(C)C)cc2)o1 (stereo unspecified)",
    "measured-attribute": "Percent Effect",
    "measured-number": 19.2
  },
  {
    "compound": "CCN1Cc2c(C(=O)NCC3CC3)ncn2-c2ccccc2S1(=O)=O",
    "measured-attribute": "Percent Effect",
    "measured-number": -1.54
  },
  {
    "compound": "CC(C)c1nc(C2CCCN(C(=O)c3ccc4[nH]cnc4c3)C2)no1 (stereo unspecified)",
    "measured-attribute": "Percent Effect",
    "measured-number": 10.7
  },
  {
    "compound": "CCOc1ncccc1NC(=O)c1cc(C)c(C)s1",
    "measured-attribute": "Percent Effect",
    "measured-number": 11.6
  }
]
